test system: 556581-035-R-J1-PDC complex spheroid growth; assay: Anticancer human tumor 556581-035-R-J1-PDC patient-derived ovarian carcinoma cell line growth inhibition [Asc]; settings: second compound 1 µM; first compound 3.16 µM; hits give low values
reportedMetric: viability, T/C (%)

{"columns": ["compound", "uom", "valueReported"],
 "data": [
  ["C=C(F)C(=O)N1CCN(c2nc(OCC3CCCN3C)nc3c2CCN(c2cccc4cccc(Cl)c24)C3)CC1CC#N (configuration not stated) + Cc1c(S(C)(=O)=O)c(-c2cc(F)cc(N3CCN(c4ccc(NS(=O)(=O)c5ccc(NC(CCN6CCC(C(=O)OCCCP(=O)(O)O)CC6)CSc6ccccc6)c(S(=O)(=O)C(F)(F)F)c5)cc4)CC3)c2)c(-c2ccc(Cl)cc2)n1C(C)C", "%", 23.5],
  ["C#Cc1c(F)ccc2cc(O)cc(-c3ncc4c(N5CC6CCC(C5)N6)nc(OCC56CCCN5CC(F)C6)nc4c3F)c12 (configuration not stated) + Cc1c(S(C)(=O)=O)c(-c2cc(F)cc(N3CCN(c4ccc(NS(=O)(=O)c5ccc(NC(CCN6CCC(C(=O)OCCCP(=O)(O)O)CC6)CSc6ccccc6)c(S(=O)(=O)C(F)(F)F)c5)cc4)CC3)c2)c(-c2ccc(Cl)cc2)n1C(C)C", "%", 59.2]
]}

----------
A collection of molecules and their measured viability, T/C
system: 556581-035-R-J1-PDC complex spheroid growth; experiment: Anticancer human tumor 556581-035-R-J1-PDC cell line growth inhibition [Asc]; conditions: second compound 0.949 µM; first compound 0.00316 µM; hits give low values;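 note: spheroids exposed to agents for 7 days before viability read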

{"columns": ["molecule", "viability, T/C / %"],
 "data": [
  ["NC1CCC(NC2CC2c2ccccc2)CC1 (stereo unspecified) + CCN1C(C(=O)NC23CCC(C(=O)O)(CC2)CC3)C(c2cccc(Cl)c2F)C2(C(=O)Nc3cc(Cl)ccc32)C12CCCCC2", 82.9],
  ["CCN1CCN(Cc2ccc(Nc3ncc(F)c(-c4cc(F)c5nc(C)n(C(C)C)c5c4)n3)nc2)CC1 + CCN1C(C(=O)NC23CCC(C(=O)O)(CC2)CC3)C(c2cccc(Cl)c2F)C2(C(=O)Nc3cc(Cl)ccc32)C12CCCCC2", 84.9],
  ["COc1c(OCCCN2CCOCC2)ccc2c3n(c(=NC(=O)c4cnc(N)nc4)nc12)CCN3 + CCN1C(C(=O)NC23CCC(C(=O)O)(CC2)CC3)C(c2cccc(Cl)c2F)C2(C(=O)Nc3cc(Cl)ccc32)C12CCCCC2", 78.3],
  ["CNC(C)C(=O)NC1CN(S(=O)(=O)c2cccc(S(=O)(=O)N3CCC4CCC(C(=O)NC(c5ccccc5)c5ccccc5)N4C(=O)C(NC(=O)C(C)NC)C3)c2)CCC2CCC(C(=O)NC(c3ccccc3)c3ccccc3)N2C1=O (stereo unspecified) + CCN1C(C(=O)NC23CCC(C(=O)O)(CC2)CC3)C(c2cccc(Cl)c2F)C2(C(=O)Nc3cc(Cl)ccc32)C12CCCCC2", 85.5],
  ["Cn1ncnc1[C@H]1c2n[nH]c(=O)c3cc(F)cc(c23)N[C@@H]1c1ccc(F)cc1 + CCN1C(C(=O)NC23CCC(C(=O)O)(CC2)CC3)C(c2cccc(Cl)c2F)C2(C(=O)Nc3cc(Cl)ccc32)C12CCCCC2", 102],
  ["O=C(c1ccc(F)c(F)c1Nc1ccc(I)cc1F)N1CC(O)([C@@H]2CCCCN2)C1 + CCN1C(C(=O)NC23CCC(C(=O)O)(CC2)CC3)C(c2cccc(Cl)c2F)C2(C(=O)Nc3cc(Cl)ccc32)C12CCCCC2", 99.1]
]}

These measurements were taken from PubChem BioAssay AID1963450.
